biological target: KRas-G12D (Homo sapiens, UniProt P01116, G12D); construct: insert the HiBiT tag onto the N-terminus of one or more of the endogenous KRas alleles; host or cells: AsPC-1 HiBiT-KRasG12D knock-in clone (one tagged allele, two untagged KRasG12D alleles); test: HiBiT Degradation Assay (G12D), AsPC-1 HiBiT-KRasG12D cells, 24 hr; format: cell-based; conditions: AsPC-1 cells
Sequence (P01116 1-188 isoform P01116-2 G12D): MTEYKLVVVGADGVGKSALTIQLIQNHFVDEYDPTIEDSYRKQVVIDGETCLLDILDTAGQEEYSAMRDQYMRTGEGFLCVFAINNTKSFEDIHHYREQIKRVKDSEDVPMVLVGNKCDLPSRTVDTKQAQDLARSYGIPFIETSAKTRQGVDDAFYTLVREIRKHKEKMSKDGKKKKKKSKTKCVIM
Parameter: DC50. Scope: all listed entries.

### Prompt Reported DC50 for C#Cc1c(F)ccc2cc(O)cc(-c3ncc4c(N5CC6CCC(C5)N6)nc(OCCN5CCC6(CC5)CCN(CC5CCN(c7cccc8c7n(C)c(=O)n8C7CCC(=O)NC7=O)CC5)CC6)nc4c3F)c12 (centres unmarked) : what is it?
### Response < 5.1 µM

### Prompt Recorded DC50 for CCc1cccc2cc(O)cc(-c3ncc4c(N5CC6CCC(C5)N6)nc(OCCN5CCN(c6cc(N7CCN(c8ccc9c(c8)C(=O)N(C8CCC(=O)NC8=O)C9=O)CC7)ncn6)CC5)nc4c3F)c12 (centres unmarked) , please?
### Response > 1 µM

### Prompt Can you share its DC50? I mean this compound: C#Cc1c(F)ccc2cc(O)cc(-c3ncc4c(N5CC6CCC(C5)N6)nc(OCCN5CCN(CC6CCN(CC7CCN(c8ccc9c(c8)n(C)c(=O)n9C8CCC(=O)NC8=O)CC7)CC6)CC5(C)C)nc4c3F)c12 (centres unmarked)
### Response < 5.1 µM

### Prompt What value of DC50 has been recorded for this entry: C#Cc1c(F)ccc2cc(O)cc(-c3ncc4c(N5CC6CCC(C5)N6)nc(OCCN5CCC(CN6CCN(CC7CCN(c8ccc9c(c8F)CN(C8CCC(=O)NC8=O)C9=O)CC7)CC6(C)C)CC5)nc4c3F)c12 (centres unmarked)
### Response < 5.1 µM

### Prompt Data request, read-out DC50, for CCc1c(F)ccc2cc(O)cc(-c3ncc4c(N5CC6CCC(C5)N6)nc(OC[C@@H]5C[C@@H](OC6CCN(CC7CCN(c8ccc9c(c8)CN(C8CCC(=O)NC8=O)C9=O)CC7)CC6)CN5C)nc4c3F)c12 (some centres unmarked)
### Response < 5.1 µM

Reference for the values: patent US12448399B2
